- Test system: Staphylococcus aureus (KCTC 1621)
- PROTOCOL: microbe, parasite or virus in culture
- CONDITION_INFO: Staphylococcus aureus, KCTC1621, 16 h, read-out: Minimum Inhibitory Concentration, S.aureus
This section presents compounds with their documented MIC values.
Report as a plain number; the unit µg/mL is understood.

MOLECULAR_STRING	MIC [µg/mL]
CN[C@H](CC(C)C)C(=O)N[C@H]1C(=O)N[C@@H](CC(N)=O)C(=O)N[C@H]2C(=O)N[C@H]3C(=O)N[C@H](C(=O)N[C@H](C(=O)O)c4cc(O)cc(O)c4-c4cc3ccc4O)[C@H](O)c3ccc(c(Cl)c3)Oc3cc2cc(c3O[C@@H]2O[C@H](CO)[C@@H](O)[C@H](O)[C@H]2O[C@H]2C[C@](C)(N)[C@H](O)[C@H](C)O2)Oc2ccc(cc2Cl)[C@H]1O	0.5
CC[C@H]1OC(=O)[C@H](C)[C@@H](O[C@H]2C[C@@](C)(OC)[C@@H](O)[C@H](C)O2)[C@H](C)[C@@H](O[C@@H]2O[C@H](C)C[C@H](N(C)C)[C@H]2O)[C@](C)(O)C[C@@H](C)C(=O)[C@H](C)[C@@H](O)[C@]1(C)O	0.25
CC(=O)NC[C@H]1CN(c2ccc(N3CCOCC3)c(F)c2)C(=O)O1	1
C[C@@H](O)[C@H]1C(=O)N2C(C(=O)O)=C(S[C@@H]3CN[C@H](C(=O)N(C)C)C3)[C@H](C)[C@H]12	1
CO[C@H]1/C=C/O[C@@]2(C)Oc3c(C)c(O)c4c(O)c(c(/C=N/N5CCN(C)CC5)c(O)c4c3C2=O)NC(=O)/C(C)=C\C=C\[C@H](C)[C@H](O)[C@@H](C)[C@@H](O)[C@@H](C)[C@H](OC(C)=O)[C@@H]1C	1

From here, focus on the item given below.
Record summary for C[C@@H](O)[C@H]1C(=O)N2C(C(=O)O)=C(SCCN=CN)C[C@H]12 : reported MIC = 1

* * *

- Tested on: CRAB C2
- PROTOCOL: microbe, parasite or virus in culture
- CONDITION_INFO: Acinetobacter baumannii, 16 h, read-out: MIC alone, CRAB C2
Listed below: MIC values for each entry.
Write down the numeric answer in µg/mL and omit the unit.

Some compounds with recorded MIC:
COMPOUND	MIC (µg/mL)
CO[C@H]1/C=C/O[C@@]2(C)Oc3c(C)c(O)c4c(O)c(c(/C=N/N5CCN(C)CC5)c(O)c4c3C2=O)NC(=O)/C(C)=C\C=C\[C@H](C)[C@H](O)[C@@H](C)[C@@H](O)[C@@H](C)[C@H](OC(C)=O)[C@@H]1C [Rifampin]	64
C[C@@H](O)[C@H]1C(=O)N2C(C(=O)O)=C(SCCN=CN)C[C@H]12 [Imipenem]	64
CC[C@H]1OC(=O)[C@H](C)[C@@H](O[C@H]2C[C@@](C)(OC)[C@@H](O)[C@H](C)O2)[C@H](C)[C@@H](O[C@@H]2O[C@H](C)C[C@H](N(C)C)[C@H]2O)[C@](C)(O)C[C@@H](C)C(=O)[C@H](C)[C@@H](O)[C@]1(C)O [Erythromycin]	512

Noted for CC(=O)NC[C@H]1CN(c2ccc(N3CCOCC3)c(F)c2)C(=O)O1 [Linezolid] : its MIC reads 256

The compound listed as C[C@@H](O)[C@H]1C(=O)N2C(C(=O)O)=C(S[C@@H]3CN[C@H](C(=O)N(C)C)C3)[C@H](C)[C@H]12 [Meropenem] has a reported MIC of 64

Recorded result, CN[C@H](CC(C)C)C(=O)N[C@H]1C(=O)N[C@@H](CC(N)=O)C(=O)N[C@H]2C(=O)N[C@H]3C(=O)N[C@H](C(=O)N[C@H](C(=O)O)c4cc(O)cc(O)c4-c4cc3ccc4O)[C@H](O)c3ccc(c(Cl)c3)Oc3cc2cc(c3O[C@@H]2O[C@H](CO)[C@@H](O)[C@H](O)[C@H]2O[C@H]2C[C@](C)(N)[C@H](O)[C@H](C)O2)Oc2ccc(cc2Cl)[C@H]1O [Vancomycin] , MIC: 256
